src = paper PMC9820082

Recorded inhibition at 48 h, 100 µM for the following compounds
Test system: P-glycoprotein (P-gp)
Assay: P-gp content in MCF-7/ADR cell lysate (human P-gp ELISA kit)
Type: cell-based
Details: human, MCF-7/ADR cells (cell lysate); Conc. 100 (µM), MCF-7/ADR cell lysate, 48 h, ELISA

>  <COMPOUND>
N#CC1=C(N)Oc2ccc3ccc(O)cc3c2C1c1cc(Cl)ccc1Cl (stereo not drawn)

>  <inhibition at 48 h, 100 µM, %>
91

$$$$
>  <COMPOUND>
N#CC1=C(N)Oc2ccc3ccc(O)cc3c2C1c1ccc(F)cc1F (stereo not drawn)

>  <inhibition at 48 h, 100 µM, %>
80

$$$$
>  <COMPOUND>
N#CC1=C(N)Oc2ccc3ccc(O)cc3c2C1c1cccc(Cl)c1Cl (stereo not drawn)

>  <inhibition at 48 h, 100 µM, %>
88

$$$$
>  <COMPOUND>
N#CC1=C(N)Oc2ccc3ccc(O)cc3c2C1c1ccc(Cl)cc1Cl (stereo not drawn)

>  <inhibition at 48 h, 100 µM, %>
69

$$$$
>  <COMPOUND>
N#CC1=C(N)Oc2ccc3ccc(O)cc3c2C1c1cc(Br)cc(Br)c1 (stereo not drawn)

>  <inhibition at 48 h, 100 µM, %>
76

$$$$
>  <COMPOUND>
N#CC1=C(N)Oc2ccc3ccc(O)cc3c2C1c1ccc(Cl)c(Cl)c1 (stereo not drawn)

>  <inhibition at 48 h, 100 µM, %>
83

$$$$

---

System: P-glycoprotein (P-gp)
Assay: P-gp content in MCF-7/ADR cell lysate (human P-gp ELISA kit)
Format: cell-based
Details: MCF-7/ADR, in words

>  <COMPOUND>
N#CC1=C(N)Oc2ccc3ccc(O)cc3c2C1c1cccc(Cl)c1Cl (centres unmarked)

>  <inhibitory effect on the P-gp level>
strong inhibitory effect

$$$$
>  <COMPOUND>
N#CC1=C(N)Oc2ccc3ccc(O)cc3c2C1c1cc(Cl)ccc1Cl (centres unmarked)

>  <inhibitory effect on the P-gp level>
strong inhibitory effect

$$$$
>  <COMPOUND>
N#CC1=C(N)Oc2ccc3ccc(O)cc3c2C1c1ccc(F)cc1F (centres unmarked)

>  <inhibitory effect on the P-gp level>
strong inhibitory effect

$$$$

---

System: P-glycoprotein (P-gp)
Experiment: P-gp content in MCF-7/ADR cell lysate (human P-gp ELISA kit)
Assay type: cell-based
Conditions: human, MCF-7/ADR cells (cell lysate); Conc. 50 (µM), MCF-7/ADR cell lysate, 48 h, ELISA
Label scheme for inhibition at 48 h, 50 µM: lower than 70% is no (0), 70% and above is yes (1).

>  <MOLECULE>
N#CC1=C(N)Oc2ccc3ccc(O)cc3c2C1c1ccc(Cl)cc1Cl (stereo not drawn)

>  <CLASS_LABEL>
no (0)

$$$$
>  <MOLECULE>
N#CC1=C(N)Oc2ccc3ccc(O)cc3c2C1c1ccc(Cl)c(Cl)c1 (stereo not drawn)

>  <CLASS_LABEL>
no (0)

$$$$
>  <MOLECULE>
N#CC1=C(N)Oc2ccc3ccc(O)cc3c2C1c1cc(Br)cc(Br)c1 (stereo not drawn)

>  <CLASS_LABEL>
no (0)

$$$$
>  <MOLECULE>
N#CC1=C(N)Oc2ccc3ccc(O)cc3c2C1c1cc(Cl)ccc1Cl (stereo not drawn)

>  <CLASS_LABEL>
yes (1)

$$$$

---

Test system: human fetal lung (HFL-1)
Assay: Cytotoxicity against normal cell line HFL-1
Format: cell-based
Details: Homo sapiens, HFL1, 24 h, 24 h incubation, mean ± standard error
pIC50: −log10 of the molar value.
MEASURED_PROPERTY: pIC50

>  <COMPOUND>
N#CC1=C(N)Oc2ccc3ccc(O)cc3c2C1c1cccc(Cl)c1Cl (centres unmarked)

>  <MEASURED_PROPERTY>
pIC50

>  <OBSERVED_RESULT>
4.66

$$$$
>  <COMPOUND>
COc1cc(C2C(C#N)=C(N)Oc3ccc4ccc(O)cc4c32)cc(OC)c1OC (centres unmarked)

>  <MEASURED_PROPERTY>
pIC50

>  <OBSERVED_RESULT>
4.65

$$$$
>  <COMPOUND>
N#CC1=C(N)Oc2ccc3ccc(O)cc3c2C1c1ccc(Cl)cc1Cl (centres unmarked)

>  <MEASURED_PROPERTY>
pIC50

>  <OBSERVED_RESULT>
4.70

$$$$
>  <COMPOUND>
COc1ccc(C2C(C#N)=C(N)Oc3ccc4ccc(O)cc4c32)c(OC)c1 (centres unmarked)

>  <MEASURED_PROPERTY>
pIC50

>  <OBSERVED_RESULT>
4.62

$$$$
>  <COMPOUND>
N#CC1=C(N)Oc2ccc3ccc(O)cc3c2C1c1ccc(F)cc1F (centres unmarked)

>  <MEASURED_PROPERTY>
pIC50

>  <OBSERVED_RESULT>
4.58

$$$$
>  <COMPOUND>
N#CC1=C(N)Oc2ccc3ccc(O)cc3c2C1c1ccc(Cl)c(Cl)c1 (centres unmarked)

>  <MEASURED_PROPERTY>
pIC50

>  <OBSERVED_RESULT>
4.56

$$$$
>  <COMPOUND>
N#CC1=C(N)Oc2ccc3ccc(O)cc3c2C1c1cc(Cl)ccc1Cl (centres unmarked)

>  <MEASURED_PROPERTY>
pIC50

>  <OBSERVED_RESULT>
4.62

$$$$

---

Target: P-gp activity (efflux function) (Homo sapiens)
Construct: measuring intracellular accumulation of Rhodamine 123 in MCF-7/ADR cells; endogenous in cells
Sequence (P08183 whole entry): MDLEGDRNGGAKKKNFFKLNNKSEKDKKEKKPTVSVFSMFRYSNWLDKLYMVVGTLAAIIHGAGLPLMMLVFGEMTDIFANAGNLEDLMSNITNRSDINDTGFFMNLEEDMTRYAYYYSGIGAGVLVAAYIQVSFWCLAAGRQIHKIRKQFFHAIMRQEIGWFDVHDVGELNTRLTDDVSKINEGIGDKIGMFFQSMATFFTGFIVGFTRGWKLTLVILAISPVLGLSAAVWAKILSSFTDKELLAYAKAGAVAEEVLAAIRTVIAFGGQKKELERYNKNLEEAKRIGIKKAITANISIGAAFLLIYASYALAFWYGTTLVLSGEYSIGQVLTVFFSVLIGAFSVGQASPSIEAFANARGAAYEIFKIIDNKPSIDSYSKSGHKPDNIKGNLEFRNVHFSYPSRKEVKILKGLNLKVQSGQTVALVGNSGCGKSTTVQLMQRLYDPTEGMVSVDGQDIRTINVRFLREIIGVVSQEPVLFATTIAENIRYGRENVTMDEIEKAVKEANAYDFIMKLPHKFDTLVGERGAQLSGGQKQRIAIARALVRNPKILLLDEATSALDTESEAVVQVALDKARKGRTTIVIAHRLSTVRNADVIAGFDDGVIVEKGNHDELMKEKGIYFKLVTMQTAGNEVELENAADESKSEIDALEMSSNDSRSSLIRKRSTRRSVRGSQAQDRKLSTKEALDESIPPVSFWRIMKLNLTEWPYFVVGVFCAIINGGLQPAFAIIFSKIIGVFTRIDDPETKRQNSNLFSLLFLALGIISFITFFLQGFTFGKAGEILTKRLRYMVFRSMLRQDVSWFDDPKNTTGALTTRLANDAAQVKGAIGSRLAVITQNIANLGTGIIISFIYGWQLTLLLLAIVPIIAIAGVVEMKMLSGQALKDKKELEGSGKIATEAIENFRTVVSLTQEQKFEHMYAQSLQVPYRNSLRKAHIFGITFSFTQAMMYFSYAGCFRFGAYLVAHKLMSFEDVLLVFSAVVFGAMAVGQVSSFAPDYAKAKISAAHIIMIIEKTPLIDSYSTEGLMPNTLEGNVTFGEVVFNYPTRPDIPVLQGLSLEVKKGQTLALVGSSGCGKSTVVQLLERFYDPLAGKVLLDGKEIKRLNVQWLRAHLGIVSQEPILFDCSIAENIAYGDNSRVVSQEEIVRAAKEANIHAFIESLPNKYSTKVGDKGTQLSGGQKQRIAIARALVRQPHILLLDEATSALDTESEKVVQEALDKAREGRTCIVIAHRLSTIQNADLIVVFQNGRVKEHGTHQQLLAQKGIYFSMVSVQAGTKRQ
Experiment: Rhodamine 123 accumulation assay in MCF-7/ADR cells
Conditions: 4 h with compound then 5.25 μM Rho123 for 30 min
pIC50: −log10 of the molar value.
Recorded pIC50 for the following compounds
MEASURED_PROPERTY: pIC50

>  <COMPOUND>
N#CC1=C(N)Oc2ccc3ccc(O)cc3c2C1c1cc(Br)cc(Br)c1 (stereo not drawn) [4i]

>  <OBSERVED_RESULT>
4.26

$$$$
>  <COMPOUND>
N#CC1=C(N)Oc2ccc3ccc(O)cc3c2C1c1ccc(F)cc1F (stereo not drawn) [4a]

>  <OBSERVED_RESULT>
4.63

$$$$
>  <COMPOUND>
N#CC1=C(N)Oc2ccc3ccc(O)cc3c2C1c1cccc(Cl)c1Cl (stereo not drawn) [4c]

>  <OBSERVED_RESULT>
4.54

$$$$
>  <COMPOUND>
N#CC1=C(N)Oc2ccc3ccc(O)cc3c2C1c1ccc(Cl)cc1Cl (stereo not drawn) [4d]

>  <OBSERVED_RESULT>
4.33

$$$$
>  <COMPOUND>
N#CC1=C(N)Oc2ccc3ccc(O)cc3c2C1c1ccc(Cl)c(Cl)c1 (stereo not drawn) [4g]

>  <OBSERVED_RESULT>
4.44

$$$$
>  <COMPOUND>
N#CC1=C(N)Oc2ccc3ccc(O)cc3c2C1c1cc(Cl)ccc1Cl (stereo not drawn) [4e]

>  <OBSERVED_RESULT>
4.84

$$$$

---

Recorded inhibition at 48 h, 12.5 µM for the following compounds
Tested on: P-glycoprotein (P-gp)
Assay: P-gp content in MCF-7/ADR cell lysate (human P-gp ELISA kit)
Assay type: cell-based
Conditions: human, MCF-7/ADR cells (cell lysate); Conc. 12.5 (µM), MCF-7/ADR cell lysate, 48 h, ELISA
MEASURED_PROPERTY: inhibition at 48 h, 12.5 µM (%)

>  <COMPOUND>
N#CC1=C(N)Oc2ccc3ccc(O)cc3c2C1c1ccc(Cl)c(Cl)c1 (stereo not drawn) [4g]

>  <MEASURED_PROPERTY>
inhibition at 48 h, 12.5 µM

>  <OBSERVED_RESULT>
23

$$$$
>  <COMPOUND>
N#CC1=C(N)Oc2ccc3ccc(O)cc3c2C1c1cc(Br)cc(Br)c1 (stereo not drawn) [4i]

>  <MEASURED_PROPERTY>
inhibition at 48 h, 12.5 µM

>  <OBSERVED_RESULT>
15

$$$$
>  <COMPOUND>
N#CC1=C(N)Oc2ccc3ccc(O)cc3c2C1c1cc(Cl)ccc1Cl (stereo not drawn) [4e]

>  <MEASURED_PROPERTY>
inhibition at 48 h, 12.5 µM

>  <OBSERVED_RESULT>
36

$$$$
>  <COMPOUND>
N#CC1=C(N)Oc2ccc3ccc(O)cc3c2C1c1ccc(F)cc1F (stereo not drawn) [4a]

>  <MEASURED_PROPERTY>
inhibition at 48 h, 12.5 µM

>  <OBSERVED_RESULT>
25

$$$$
>  <COMPOUND>
N#CC1=C(N)Oc2ccc3ccc(O)cc3c2C1c1ccc(Cl)cc1Cl (stereo not drawn) [4d]

>  <MEASURED_PROPERTY>
inhibition at 48 h, 12.5 µM

>  <OBSERVED_RESULT>
10

$$$$
>  <COMPOUND>
N#CC1=C(N)Oc2ccc3ccc(O)cc3c2C1c1cccc(Cl)c1Cl (stereo not drawn) [4c]

>  <MEASURED_PROPERTY>
inhibition at 48 h, 12.5 µM

>  <OBSERVED_RESULT>
26

$$$$
